# target_entity: Syk kinase (Homo sapiens)
# Construct: purchased
# method_description: Syk kinase inhibition, Caliper LabChip off-chip mobility-shift kinase assay
# Format: biochemical
# condition_context: Caliper LabChip assay; read-out: Syk Enzyme IC50
recorded_metric: IC50 (nM)

Solved entries:
CC(C)(C)Nc1nc(-c2cnc(N)nc2)cc2ccn(CCCCO)c(=O)c12 [compound 920]
18
CCn1ccc2cc(Nc3cc(C)ccn3)nc(N[C@H](CO)C(C)(C)C)c2c1=O [compound 806]
568
CC1(O)CN(c2cc(Nc3cc4ccn(CCO)c(=O)c4c(NC(C)(C)C)n3)ncn2)C1 [compound 630]
204
Cn1ccc2cc(Nc3nccc(O)n3)nc(NC3CCC3)c2c1=O [compound 800]
9
C[C@@H](O)c1ccnc(Nc2cc3ccn(CCO)c(=O)c3c(NC(C)(C)C)n2)c1 [compound 713]
3

(A) CC(C)(C)Nc1nc(Nc2cnccn2)cc2ccn(CC(N)=O)c(=O)c12 [compound 662]
(B) O=C(Cn1ccc2cc(Nc3cnccn3)nc(N[C@H]3CC[C@@H](O)CC3)c2c1=O)N1CCOCC1 [compound 1007]
(C) CC(C)(C)Nc1nc(-c2cnc(N)nc2)cc2ccn(CC(=O)N3CCOCC3)c(=O)c12 [compound 678]
Query block: Your job: order these 3 records by IC50, ascending. Answer by listing the labels in the requested order.
Result block: A, C, B
(A: 17 nM, C: 78 nM, B: 132 nM)

* * *

# target_entity: Syk kinase (Homo sapiens, UniProt P43405)
# Construct: purchased
# method_description: Syk kinase inhibition, Caliper LabChip off-chip mobility-shift kinase assay
# Type: biochemical
# condition_context: Caliper LabChip assay; read-out: Syk Enzyme IC50
pIC50: −log10 of the molar value.
recorded_metric: pIC50

CCn1ccc2cc(Nc3cnccn3)nc(N[C@H]3CC[C@@H](CO)C3)c2c1=O
7.74
COCCN1CCC(Oc2cc(Nc3cc4ccn(CCO)c(=O)c4c(NC(C)(C)C)n3)ncn2)CC1
7.85
CC1(Nc2nc(Nc3cnccn3)cc3cc[nH]c(=O)c23)CC1
8.10
[2H]C([2H])([2H])n1ccc2cc(Nc3cc(Cl)ccn3)nc(N[C@@H](C)CO)c2c1=O
7.22
CCn1ccc2cc(Nc3cnccn3)nc(Nc3ccc(C(=O)NCCO)cc3)c2c1=O
6.67

(A) CC(C)(C)Nc1nc(Nc2cc(-c3ccccn3)ccn2)cc2ccn(CCO)c(=O)c12
(B) O=c1c2c(NC3CC3)nc(Nc3cnccn3)cc2ccn1CCO
(C) CC1(Nc2nc(-c3cnc(N)nc3)cc3ccn(C4COC4)c(=O)c23)CCC1
(D) CC1(Cn2ccc3cc(-c4cnc(N)nc4)nc(NC4CCC4)c3c2=O)COC1
Query block: Sort by pIC50, descending. # output: labels, in the requested order
Result block: C, B, D, A

(I) CC(C)(C)Nc1nc(Nc2cc(N3CC(O)C3)ncn2)cc2ccn(CCO)c(=O)c12
(II) CC(C)(C)Nc1nc(Nc2cnccn2)cc2ccn(C[C@@H](O)c3ccccc3)c(=O)c12
(III) CC1(Cn2ccc3cc(Nc4cnccn4)nc(NC4CCC4)c3c2=O)COC1
(IV) CC(C)(C)Nc1nc(Nc2cc(OCC3CCOC3)ncn2)cc2ccn(CC(O)CO)c(=O)c12 (stereo not drawn)
Query block: Number of compounds to sort: 4. Sort criterion: pIC50, ascending. Enter labels, ranked according to the request.
Result block: I, II, IV, III

Cited source for all entries: patent US20110053897A1
